Tested on: Radical scavenging activity
Experiment: Antioxidant activity measured as ability to reduce ferric tripyridyltriazine complex at 15 uM by FRAP assay
Type: functional
Active and inactive are the calls of the source. The calls are words filed in the database; no cut-off is given here.
Classes used: 1 (yes) for active, 0 (no) for inactive

smiles=COc1ccc(/C=C/c2cccc(Cl)c2)cc1 discrete_label="0 (no)"
smiles=COc1ccc(/C=C/c2cccc(OC)c2)cc1 discrete_label="0 (no)"
smiles=Oc1ccc(/C=C/c2cc(O)cc(O)c2)cc1 discrete_label="1 (yes)"
smiles=CCOc1ccc(/C=C/c2ccccc2)cc1 discrete_label="0 (no)"
smiles=COc1ccc(/C=C/c2ccccc2F)cc1 discrete_label="0 (no)"
smiles=COc1ccc(/C=C/c2cccc(O)c2O)cc1 discrete_label="1 (yes)"
